TARGET_UNDER_TEST: PKCα (Homo sapiens, UniProt P17252)
PROCEDURE_SUMMARY: PKCα kinase Caliper assay
Assay type: biochemical
CONDITION_DETAILS: PKCα Caliper assay; read-out: PKC IC50
pIC50: −log10 of the molar value.
QUANTITY_NAME: pIC50

Reference set, count: 2
C[C@H]1O[C@@H](c2ccncc2NC(=O)c2ccc(F)c(-c3c(F)cccc3F)n2)C[C@@H](N)[C@]1(C)O; < 5.00
COc1cc(F)c(-c2nc(C(=O)Nc3cnccc3[C@H]3C[C@@H](N)[C@](C)(O)[C@@H](C)O3)ccc2F)c(F)c1; < 5.00

Then there is this compound:
Recorded pIC50 for N[C@@H]1C[C@H](c2ccncc2NC(=O)c2ccc(F)c(-c3c(F)cccc3F)n2)O[C@@H]2CCC[C@H]12 , please? < 5.00
